The values you see were collected from patent US12473262B2.

experimental.system: aryl hydrocarbon receptor (AhR) (Mus musculus (Mouse))
Sequence (P30561 10-805): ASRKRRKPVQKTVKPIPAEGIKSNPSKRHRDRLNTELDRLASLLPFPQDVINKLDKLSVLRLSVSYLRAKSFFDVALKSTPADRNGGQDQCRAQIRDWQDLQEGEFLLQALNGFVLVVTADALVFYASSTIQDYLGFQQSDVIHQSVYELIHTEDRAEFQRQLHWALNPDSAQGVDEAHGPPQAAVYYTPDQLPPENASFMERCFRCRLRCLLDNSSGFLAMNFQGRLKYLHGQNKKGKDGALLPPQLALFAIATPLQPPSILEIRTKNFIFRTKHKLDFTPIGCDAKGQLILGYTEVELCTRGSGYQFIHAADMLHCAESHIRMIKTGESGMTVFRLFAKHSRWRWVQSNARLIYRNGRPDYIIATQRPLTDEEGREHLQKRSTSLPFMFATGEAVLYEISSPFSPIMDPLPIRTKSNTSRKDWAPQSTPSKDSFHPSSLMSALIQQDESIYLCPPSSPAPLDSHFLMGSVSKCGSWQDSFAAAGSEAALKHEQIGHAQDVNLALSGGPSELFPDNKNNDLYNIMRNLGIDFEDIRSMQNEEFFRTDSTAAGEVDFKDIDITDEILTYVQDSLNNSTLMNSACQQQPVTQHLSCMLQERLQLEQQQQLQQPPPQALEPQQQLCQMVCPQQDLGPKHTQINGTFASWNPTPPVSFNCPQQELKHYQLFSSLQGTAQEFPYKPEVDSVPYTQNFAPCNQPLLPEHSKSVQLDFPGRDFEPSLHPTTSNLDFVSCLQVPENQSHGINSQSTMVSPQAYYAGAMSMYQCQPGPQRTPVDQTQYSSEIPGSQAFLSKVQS
Sequence (P53762 whole entry partner): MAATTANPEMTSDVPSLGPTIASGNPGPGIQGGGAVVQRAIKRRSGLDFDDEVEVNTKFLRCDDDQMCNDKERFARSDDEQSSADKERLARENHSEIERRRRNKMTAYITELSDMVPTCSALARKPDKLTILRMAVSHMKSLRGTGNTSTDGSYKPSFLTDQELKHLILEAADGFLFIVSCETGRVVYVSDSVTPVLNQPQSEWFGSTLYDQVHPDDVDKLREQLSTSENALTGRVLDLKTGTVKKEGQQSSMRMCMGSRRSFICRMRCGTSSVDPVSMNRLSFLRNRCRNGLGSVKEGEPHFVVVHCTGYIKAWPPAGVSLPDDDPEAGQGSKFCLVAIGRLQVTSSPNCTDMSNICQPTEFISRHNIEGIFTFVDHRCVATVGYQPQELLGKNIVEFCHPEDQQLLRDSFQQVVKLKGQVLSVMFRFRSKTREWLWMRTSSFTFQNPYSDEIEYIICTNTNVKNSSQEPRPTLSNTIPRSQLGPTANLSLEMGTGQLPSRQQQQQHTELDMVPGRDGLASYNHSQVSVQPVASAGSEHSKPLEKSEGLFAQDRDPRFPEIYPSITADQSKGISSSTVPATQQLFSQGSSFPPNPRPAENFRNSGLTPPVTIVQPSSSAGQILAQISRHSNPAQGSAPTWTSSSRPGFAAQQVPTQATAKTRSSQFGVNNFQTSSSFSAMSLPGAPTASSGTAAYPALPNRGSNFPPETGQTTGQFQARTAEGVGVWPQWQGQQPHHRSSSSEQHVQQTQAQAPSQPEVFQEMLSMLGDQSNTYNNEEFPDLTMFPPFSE
assay.name: AhR ligand screening: AhRE-luciferase reporter in transfected Hepa1 cells
Type: cell-based
recorded.conditions: luciferase expression at 100 nM test compound relative to 100 nM benchmark compound 11-cl-BBQ
measured.property: Fold relative to benchmark @ 100 nM (fold)
Give bare numbers, in fold.

For orientation, consider the following solved cases.
compound	endpoint.unit	measured.result
Cc1ccc(S(=O)(=O)n2c(-c3cccc4ccccc34)nc3ccccc32)cc1 [Compound 579]	fold	0.07
O=C(c1ccc2nc(-c3cccc4ccccc34)n(S(=O)(=O)c3cccc(F)c3)c2c1)N1CCCCC1 [Compound 1369]	fold	0.03
Clc1ccc2nc(-c3cccc4ccccc34)n(Cc3ccnc4ccccc34)c2c1 [Compound 868]	fold	0.07
CN(C)c1ccc(C(=O)c2c[nH]c3ccc(Cl)cc23)cc1 [Compound 891]	fold	0.02
O=C(c1ccc2c(c1)nc(-c1cccc3ccccc13)n2Cc1cccc2ccccc12)N1CCOCC1 [Compound 1408]	fold	0.03
O=S(=O)(c1ccc2ccccc2c1)n1c(-c2cccc3ccccc23)nc2ccc(Cl)cc21 [Compound 786]	fold	1.07

Give Fold relative to benchmark @ 100 nM for each listed item.
1. COc1ccc(-c2nc3cc(Cl)ccc3n2C(=O)c2ccc(F)c(F)c2)c2ccccc12 [Compound 645]
2. COC(=O)c1ccc2nc(-c3cccc4ccccc34)n(S(=O)(=O)c3ccc(C(F)(F)F)cc3)c2c1 [Compound 1402]

0.11
0.07
